# TARGET_OF_ASSAY: GluA1o-γ8 (GRIA1o-CACNG8 fusion construct) (Homo sapiens (Human), UniProt P42261+Q8WXS5)
# Sequence (P42261 other isoform, or with tags, fused parts or gaps): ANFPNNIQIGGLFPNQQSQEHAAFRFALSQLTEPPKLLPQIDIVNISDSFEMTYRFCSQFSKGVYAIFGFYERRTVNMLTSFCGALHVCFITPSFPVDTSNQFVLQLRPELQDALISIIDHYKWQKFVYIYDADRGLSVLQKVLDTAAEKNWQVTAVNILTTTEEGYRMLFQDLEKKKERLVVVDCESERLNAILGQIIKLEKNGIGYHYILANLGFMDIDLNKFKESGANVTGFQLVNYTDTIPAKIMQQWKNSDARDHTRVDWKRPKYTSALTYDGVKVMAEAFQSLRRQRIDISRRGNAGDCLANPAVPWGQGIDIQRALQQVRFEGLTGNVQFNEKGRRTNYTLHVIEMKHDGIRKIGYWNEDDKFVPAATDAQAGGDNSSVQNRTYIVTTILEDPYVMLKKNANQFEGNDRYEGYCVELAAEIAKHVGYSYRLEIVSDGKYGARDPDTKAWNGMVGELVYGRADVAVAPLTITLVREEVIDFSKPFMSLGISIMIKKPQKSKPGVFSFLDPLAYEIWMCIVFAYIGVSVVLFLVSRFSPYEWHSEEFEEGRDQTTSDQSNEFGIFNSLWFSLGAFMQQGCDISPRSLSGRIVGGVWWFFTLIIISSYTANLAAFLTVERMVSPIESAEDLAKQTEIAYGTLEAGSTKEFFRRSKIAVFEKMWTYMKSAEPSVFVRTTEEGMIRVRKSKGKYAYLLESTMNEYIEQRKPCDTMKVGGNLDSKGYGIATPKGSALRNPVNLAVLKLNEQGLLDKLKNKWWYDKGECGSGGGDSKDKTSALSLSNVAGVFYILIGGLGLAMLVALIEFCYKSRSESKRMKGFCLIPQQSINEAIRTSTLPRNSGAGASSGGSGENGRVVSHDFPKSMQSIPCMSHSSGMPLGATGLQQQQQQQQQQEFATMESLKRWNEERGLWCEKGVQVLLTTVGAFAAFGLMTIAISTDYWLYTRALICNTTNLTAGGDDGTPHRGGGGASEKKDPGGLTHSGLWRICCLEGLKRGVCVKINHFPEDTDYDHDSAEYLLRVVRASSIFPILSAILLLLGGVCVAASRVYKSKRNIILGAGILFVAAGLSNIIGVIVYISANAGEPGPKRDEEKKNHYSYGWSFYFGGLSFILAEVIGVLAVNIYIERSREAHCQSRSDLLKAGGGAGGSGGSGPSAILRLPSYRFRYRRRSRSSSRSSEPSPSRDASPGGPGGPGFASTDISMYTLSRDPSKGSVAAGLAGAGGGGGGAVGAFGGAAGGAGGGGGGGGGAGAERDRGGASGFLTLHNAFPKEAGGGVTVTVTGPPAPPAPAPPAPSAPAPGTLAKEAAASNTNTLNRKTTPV
# TEST_NAME: Calcium flux assay (FLIPR), inhibition of TARP γ8 dependent AMPA receptor activity
# TEST_CONTEXT: GluA1o-γ8 (GRIA1o-CACNG8 fusion) in HEK293 cells, calcium flux after 15 μM glutamate
pIC50: −log10 of the molar value.
Give Yes when the value for pIC50 is at least 9. Give No when it is less.

OCCCc1cc(-n2c(C(F)(F)F)nc3ccc(C(F)(F)F)nc32)cc2cn[nH]c12 ... No

Task: Dear colleague, could you confirm whether Cc1ccc2nc(C(C)C)n(-c3ccc4[nH]ncc4c3)c2n1 has pIC50 at or above 9?
Output: No

Task: Determine whether measured pIC50 meets or exceeds 9 for Cc1cc(-n2c(C(C)(F)F)nc3ccc(C(F)(F)F)nc32)cc2c1NC(=O)C2
Output: Yes

Task: In plain terms: is recorded pIC50 at least 9 for Cc1cc(-n2c([C@H](C)F)nc3ccc(C(F)(F)F)nc32)cc2cn[nH]c12 (single isomer, unassigned) ?
Output: Yes

Task: Does Cc1ccc2c(Br)c(-c3ccccc3)n(-c3cnc4c(c3)CC(=O)N4)c2n1 have a reported pIC50 of at least 9?
Output: No
